species on record: Homo sapiens; assay: In vitro inhibition of histamine release from human basophils; type: functional, organism-based; details: Homo sapiens
Recorded log10(IC50) values for a group of molecules are listed next.
Remember, log10 of IC50, in nM.

Worked cases, answers included:
>>> reported("Clc1cccc(Nc2nccc(-c3cccnc3)n2)c1")
3.18
>>> reported("Cc1cccc(Nc2nccc(-c3ccc[nH]3)n2)c1")
3.93
>>> reported("FC(F)(F)c1cc(Nc2nccc(-c3ccncc3)n2)ccc1-n1ccnc1")
2.60
>>> reported("Cc1cccc(Nc2nccc(-c3cccnc3)n2)c1")
3.18
>>> reported("Oc1ccc(Nc2nccc(-c3cccnc3)n2)cc1")
3.71
>>> reported("CN(C)c1cccc(Nc2nccc(-c3ccncc3)n2)c1")
3.57
>>> reported("c1ccc(Nc2nccc(-c3cccnc3)n2)cc1")
2.95
>>> reported("CCc1cccc(Nc2nccc(-c3ccsc3)n2)c1")
3.04

So what does the record say about log10(IC50) for CC(=O)Nc1cccc(Nc2nccc(-c3ccccn3)n2)c1 ? 2.48

# log10(IC50) lookup, item c1ccc(Nc2nccc(-c3c[nH]c4ccccc34)n2)cc1 3.48

Give the measured log10(IC50) of CC(=O)Nc1cccc(Nc2nccc(-c3ccncc3)n2)c1 . 3.43

What does the record list as log10(IC50) for CC1CCN(c2ccc(Nc3nccc(-c4cccnc4)n3)cc2)CC1 ? 2.70

// log10(IC50) lookup, key: NS(=O)(=O)c1cccc(Nc2nccc(-c3ccccn3)n2)c1 2.70

log10(IC50) for c1csc(-c2ccnc(Nc3ccc(-n4ccnc4)cc3)n2)c1 ? 3.63

Recorded log10(IC50) of c1cncc(-c2ccnc(Nc3cccc(-n4ccnc4)c3)n2)c1 , please. 2.30

Fill in the blank: the reported log10(IC50) of Nc1cccc(Nc2nccc(-c3ccccn3)n2)c1 is ____. 2.48

Any idea what log10(IC50) was measured for Cc1cc(-c2ccnc(Nc3ccccc3)n2)c(C)o1 ? 3.30

Field request: log10(IC50) | item: Nc1ccc(Nc2nccc(-c3cccnc3)n2)cc1 3.45

Which log10(IC50) is reported for this molecule? COc1cccc(Nc2nccc(-c3ccncc3)n2)c1 2.60

What log10(IC50) value was documented for this molecule, COc1cccc(Nc2nccc(-c3ccc(C)s3)n2)c1 ? 3.36

// query log10(IC50) value for entry c1cc(Nc2nccc(-c3cccs3)n2)cc(-n2ccnc2)c1 2.48
